assay: Ex Vivo Assay for Bioavailability of MMP-3 Inhibitors (plasma level after dosing); assay type: in vivo; details: rat, po; rats, dosed orally at 100 mg/kg; plasma level read via MMP-3 inhibition against a spiked plasma standard curve
readout_kind: Cmax (nM)
Quick reminder: number only, in nM, skip the unit.

For the compound CC(C)C[C@@H](C(=O)N[C@H](c1nc2cc(Cl)ccc2[nH]1)C(C)(C)C)[C@H](O)C(=O)NO [Example 86] , report Cmax. 960

Where do the numbers come from? From patent US5703092A.
